The measured values listed here are drawn from the kinase profiling compilation of Christmann-Franck et al. (2016).

# subject_of_test: UniProt:P45983
# Sequence (P45983 whole entry, looked up): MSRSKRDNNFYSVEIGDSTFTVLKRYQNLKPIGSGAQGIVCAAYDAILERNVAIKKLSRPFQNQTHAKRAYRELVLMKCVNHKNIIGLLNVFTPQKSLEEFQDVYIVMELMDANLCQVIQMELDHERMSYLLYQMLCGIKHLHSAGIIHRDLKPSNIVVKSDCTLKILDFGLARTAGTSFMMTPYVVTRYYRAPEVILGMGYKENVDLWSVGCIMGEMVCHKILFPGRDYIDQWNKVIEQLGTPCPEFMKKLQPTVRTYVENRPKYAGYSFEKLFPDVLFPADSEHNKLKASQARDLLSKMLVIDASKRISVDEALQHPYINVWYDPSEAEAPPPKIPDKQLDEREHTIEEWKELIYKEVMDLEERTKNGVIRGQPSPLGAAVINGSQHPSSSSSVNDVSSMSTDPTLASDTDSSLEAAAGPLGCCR
# test: radiometric filter-binding kinase assay, Kinase HotSpot
# conditions_used: compound 0.5 µM; ATP 10 µM

smiles_input	residual activity / %
Cn1sc(=O)n(Cc2ccccc2)c1=O	85.5
O=C1Nc2ccccc2/C1=C1\Nc2ccccc2\C1=N/O	101
O=C1NC(=O)/C(=C\c2ccc3nccnc3c2)S1	91.5
COc1cc2ncc(-c3ccccc3)nc2cc1OC	102
Cn1nc2c3c(cccc31)C(=O)c1ccccc1-2	87.2

---

# subject_of_test: MAP3K10 (human)
# test: radiometric filter-binding kinase assay, Kinase HotSpot
# conditions_used: compound 0.5 µM; ATP 10 µM
Measured residual activity of individual entries
readout: residual activity

compound	readout_value
Cn1cnc2cc3c(Nc4cccc(Br)c4)ncnc3cc21	94%
O=C1Nc2ccccc2/C1=C1\Nc2ccccc2\C1=N/O	95.2%
Cc1nc2cc3nc(-c4cccs4)cnc3cc2n1C	101%
O=C1Cc2c([nH]c3ccc(Br)cc23)-c2ccccc2N1	79.3%
CCn1cnc2c(Nc3cccc(Cl)c3)nc(N[C@@H]3CCCC[C@@H]3N)nc21	92.9%
Nc1nccc(-c2c(-c3ccc(F)cc3)ncn2C2CCNCC2)n1	99.8%
COc1ccc(CNC(=O)Nc2ncc([N+](=O)[O-])s2)cc1	97.9%
O=C1NC(=O)C(c2c[nH]c3ccccc23)=C1c1c[nH]c2ccccc12	79%
O=C1Nc2ccccc2/C1=C1/Nc2ccccc2/C1=N\OCCC(O)CO (configuration not stated)	86.9%
CCN(CC)CCCCN1c2ccccc2Oc2ccc(Cl)cc21	102%
CN([C@@H](Cc1ccc(OS(=O)(=O)c2cccc3cnccc23)cc1)C(=O)N1CCN(c2ccccc2)CC1)S(=O)(=O)c1cccc2cnccc12	92.6%
Oc1ccc(Nc2nc(-c3ccc(Cl)cc3)cs2)cc1	100%
O=C1NC(=O)/C(=C\c2ccc3nccnc3c2)S1	94.2%
CN(C)C[C@H]1CCn2c(c(C3=C(c4cn(C)c5ccccc45)C(=O)NC3=O)c3ccccc32)C1	102%
Nc1nnc2[nH]c3ccccc3nc1-2	93.1%
CC(C)[C@H](CO)Nc1nc(Nc2cc(N)cc(Cl)c2)c2ncn(C(C)C)c2n1	95.1%
Cn1sc(=O)n(Cc2ccccc2)c1=O	99.5%
CC(=O)O/N=C1\C(=C2\C(=O)Nc3cc(Br)ccc32)Nc2ccccc21	92.3%
CC(C)c1nn(-c2c(Cl)cccc2Cl)c2nc(Cc3ccc(OCCO)cc3)nc(O)c12	90.3%
O=C(Nc1cccc(Nc2cc(Nc3cccc(C(F)(F)F)c3)ncn2)c1)C1CC1	101%
Cn1nc2c3c(cccc31)C(=O)c1ccccc1-2	91.4%
O=C1NC(=O)C(c2cn(CCCO)c3ncccc23)=C1c1cnccn1	91.3%
O=C(O)/C=C/c1cc(Br)c(Br)c(Br)c1Br	92.3%
COc1cc2ncnc(N3CCN(C(=O)Nc4ccc(Oc5ccccc5)cc4)CC3)c2cc1OC	92%
COc1ccc(OC)c2c(=S)c3ccccc3[nH]c12	92.8%
COc1cc2ncc(-c3ccccc3)nc2cc1OC	105%
O=C(CCCc1ccc(-c2ccccc2F)cc1)Nc1ccc(O)cc1	88.8%
